- Protocol text: Liver Microsome Stability Assay (monkey)
- Study conditions: monkey liver microsomes, with NADPH, 1.0 uM compound
Measured quantity: Liver Microsome Stability (Multiple Species): Monkey - % Remaining after 30 min w/NADPH (%)

[P] CCc1ccc(N2CCC[C@@H]2c2csc(NC(=O)c3cccn3CC3CCOCC3)n2)cn1 [Compound C96]
[Q] CC(C)n1ccnc1/C=C/c1csc(NC(=O)c2cccn2Cc2ccnc(F)c2)n1 [Compound B95]
[R] O=C(Nc1nc([C@H]2CCN(c3ccccn3)C2)cs1)c1cccn1Cc1ccncc1 [Compound E44]
Ask: Order the 3 molecules from highest to lowest Liver Microsome Stability (Multiple Species): Monkey - % Remaining after 30 min w/NADPH. Response format: the labels, sorted as the prompt asks.
Reply: R, P, Q
(R: 0.59%, P: 0.13%, Q: 0.03%)

----------
- Protocol text: Liver Microsome Stability Assay (monkey)
- Study conditions: monkey liver microsomes, with NADPH, 1.0 uM compound
Measured quantity: Liver Microsome Stability (Multiple Species): Monkey - % Remaining after 30 min w/NADPH (%)

[1] N#Cc1ccc(Cn2cccc2C(=O)Nc2nc([C@H]3CCCN3c3ccccc3)cs2)cc1
[2] CC1=NC(/C=C/c2csc(NC(=O)c3cccn3Cc3ccncc3)n2)CO1 (centres unmarked)
[3] O=C(Nc1nc([C@H]2CCCN2c2ccccc2)cs1)c1cccn1CCc1nnn[nH]1
Ask: # order the compounds above by Liver Microsome Stability (Multiple Species): Monkey - % Remaining after 30 min w/NADPH, highest value first Please respond with the labels ordered as the question requires.
Reply: 3, 1, 2

----------
- Protocol text: Liver Microsome Stability Assay (rat)
- Study conditions: rat liver microsomes, with NADPH, 1.0 uM compound
Measured quantity: Liver Microsome Stability (Multiple Species): Rat - % Remaining after 30 min w/NADPH (%)

Compound | Unit annotation | Endpoint result
O=C(Nc1nc([C@H]2CCCN2c2ccccc2)cs1)c1cccn1Cc1ccc(=O)[nH]c1 | % | 38.8

[A] O=C(Nc1nc([C@H]2CCCN2c2ccccc2)cs1)c1cccn1CCC1COC1
[B] C#CCCn1cccc1C(=O)Nc1nc([C@H]2CCCN2c2ccccc2)cs1
[C] CC(=O)N1CCC(Oc2ccc(N3CCC[C@@H]3c3csc(NC(=O)c4cccn4Cc4ccnc(F)c4)n3)cc2)CC1
[D] CC1CCCc2c(/C=C/c3csc(NC(=O)c4cccn4Cc4ccnc(F)c4)n3)ncn21 (stereo not shown)
[E] CNC(=O)N1CC(Oc2ccc(N3CCC[C@@H]3c3csc(NC(=O)c4cccn4Cc4ccnc(F)c4)n3)cc2)C1
Ask: hey, can you rank those compounds up there by Liver Microsome Stability (Multiple Species): Rat - % Remaining after 30 min w/NADPH? biggest number first please // format: requested-order list of labels
Reply: C, E, B, A, D

----------
- Protocol text: Liver Microsome Stability Assay (rat)
- Study conditions: rat liver microsomes, with NADPH, 1.0 uM compound
Measured quantity: Liver Microsome Stability (Multiple Species): Rat - % Remaining after 30 min w/NADPH (%)

Molecule | Endpoint result
[2H]c1cc([2H])cc(N2CCC[C@@H]2c2csc(NC(=O)c3cccn3Cc3ccnc(F)c3)n2)c1 | 13.9
C#CCn1cccc1C(=O)Nc1nc([C@H]2CCCN2c2ccccc2)cs1 | 20.3

[P] CCC(CC#N)Cn1cccc1C(=O)Nc1nc([C@H]2CCCN2c2ccccc2)cs1 (stereo partly shown)
[Q] COc1ccc(O[C@@H]2CC[C@H](c3csc(NC(=O)c4cccn4Cc4ccncc4)n3)C2)nc1
Ask: # query: argmin of Liver Microsome Stability (Multiple Species): Rat - % Remaining after 30 min w/NADPH over P and Q Refer to your chosen item by its label in the answer.
Reply: Q
(Q: 0.38%, P: 14.8%)

----------
- Protocol text: Liver Microsome Stability Assay (human)
- Study conditions: human liver microsomes, with NADPH, 1.0 uM compound
Measured quantity: Liver Microsome Stability (Multiple Species): Human - % Remaining after 30 min w/NADPH (%)

Item smiles | Endpoint result
CN(C)C(=O)CCn1cccc1C(=O)Nc1nc([C@H]2CCCN2c2ccccc2)cs1 | 0.87

[I] CC(C)c1nc(/C=C/c2csc(NC(=O)c3cccn3Cc3ccncc3)n2)cn1C
[II] O=C(Nc1nc(/C=C/c2cn(C3CCCCC3)cn2)cs1)c1cccn1Cc1ccncc1
[III] O=C(Nc1nc([C@H]2CCCN2c2ccc(Br)cc2)cs1)c1cccn1Cc1ccnc(F)c1
Ask: # sort list by recorded Liver Microsome Stability (Multiple Species): Human - % Remaining after 30 min w/NADPH, greatest to least Response format: the labels, sorted as the prompt asks.
Reply: III, I, II
(III: 45.3%, I: 0.95%, II: 0.4%)

----------
- Protocol text: Liver Microsome Stability Assay (human)
- Study conditions: human liver microsomes, with NADPH, 1.0 uM compound
Measured quantity: Liver Microsome Stability (Multiple Species): Human - % Remaining after 30 min w/NADPH (%)

Compound | Endpoint result
CC(=O)N1CCC(Oc2ccc(N3CCC[C@@H]3c3csc(NC(=O)c4cccn4Cc4ccnc(F)c4)n3)cc2C#N)CC1 | 1.21
CS(=O)(=O)N1CCC(Oc2ccc(N3CCC[C@@H]3c3csc(NC(=O)c4cccn4Cc4ccnc(F)c4)n3)cc2)CC1 | 28
CC(C)n1cnc(/C=C/c2csc(NC(=O)c3cccn3CC3CCOCC3)n2)c1 | 0.04
CC(=O)Nc1ccc(N2CCC[C@@H]2c2csc(NC(=O)c3cccn3Cc3ccncc3)n2)cc1 | 3.12
NC(=O)CCn1cnc(/C=C/c2csc(NC(=O)c3cccn3Cc3ccnc(F)c3)n2)c1 | 10.2

[P] COc1ccc(O[C@H]2CC[C@H](c3csc(NC(=O)c4cccn4Cc4ccncc4)n3)C2)nc1
[Q] Cc1ocnc1/C=C/c1csc(NC(=O)c2cccn2Cc2ccncc2)n1
[R] COc1cc(N2CCC[C@@H]2c2csc(NC(=O)c3cccn3Cc3ccnc(F)c3)n2)ccc1OC1CCN(C(C)=O)CC1
Ask: # rank_down: sort by Liver Microsome Stability (Multiple Species): Human - % Remaining after 30 min w/NADPH, max first # the answer lists labels in the order requested
Reply: R, Q, P

[P] O=C(Nc1nc(/C=C/C2CN(c3ccccc3)CCO2)cs1)c1cccn1Cc1ccncc1 (stereo not shown)
[Q] CCc1ccc(N2CCC[C@@H]2c2csc(NC(=O)c3cccn3Cc3ccncc3)n2)nc1
[R] CC(C#N)CCn1cccc1C(=O)Nc1nc([C@H]2CCCN2c2ccccc2)cs1 (stereo partly shown)
[S] CN1C(=O)CCCC1/C=C/c1csc(NC(=O)c2cccn2Cc2ccncc2)n1 (stereo not shown)
Ask: Please give the order of these compounds when sorted by Liver Microsome Stability (Multiple Species): Human - % Remaining after 30 min w/NADPH, largest value leading. Please list the labels in the order you were asked to rank them.
Reply: R, P, Q, S
(R: 24%, P: 0.82%, Q: 0.33%, S: 0.05%)

----------
- Protocol text: Liver Microsome Stability Assay (human)
- Study conditions: human liver microsomes, with NADPH, 1.0 uM compound
Measured quantity: Liver Microsome Stability (Multiple Species): Human - % Remaining after 30 min w/NADPH (%)

[P] N#Cc1cc(Cn2cccc2C(=O)Nc2nc([C@H]3CCCN3c3ccccc3)cs2)ccn1
[Q] O=C(Nc1nc([C@H]2CCCN2c2ccc(OC3CCOCC3)cc2)cs1)c1cccn1Cc1ccncc1
Ask: Would you let me know which has the greater Liver Microsome Stability (Multiple Species): Human - % Remaining after 30 min w/NADPH value, P or Q ? Reply with the label of the item you choose.
Reply: Q
(Q: 14.3%, P: 1.3%)

----------
- Protocol text: Liver Microsome Stability Assay (human)
- Study conditions: human liver microsomes, with NADPH, 1.0 uM compound
Measured quantity: Liver Microsome Stability (Multiple Species): Human - % Remaining after 30 min w/NADPH (%)

Compound | Endpoint result
O=C(Nc1nc([C@H]2CCCN2c2ccc([N+](=O)[O-])cc2)cs1)c1cccn1Cc1ccncc1 [Compound A27] | 1.61
O=C(Nc1nc([C@H]2CCCN2c2ncccn2)cs1)c1cccn1Cc1ccncc1 [Compound A32] | 0.24
C[C@H](O)c1ccc(N2CCC[C@@H]2c2csc(NC(=O)c3cccn3Cc3ccnc(F)c3)n2)cc1 [Compound A112] | 3.41
O=C(Nc1nc([C@H]2CCCN2c2ccccc2)cs1)c1cccn1Cc1ccnc(Br)c1 [Compound E23] | 3
O=C(Nc1nc([C@H]2CCCN2c2ccc(OC3CCNCC3)cc2)cs1)c1cccn1Cc1ccncc1 [Compound A6] | 25.7

[P] CC(=O)N1CCC(Oc2ccc(N3CCC[C@@H]3c3csc(NC(=O)c4cccn4Cc4ccnc(F)c4)n3)nc2)CC1 [Compound A154]
[Q] O=C(Nc1nc([C@H]2CCCN2c2ccccc2)cs1)c1cccn1CC1CCS(=O)(=O)CC1 [Compound C37]
Ask: Thinking about recorded Liver Microsome Stability (Multiple Species): Human - % Remaining after 30 min w/NADPH values, which is higher, P or Q ? Please reply using the label of the selected record.
Reply: Q

----------
- Protocol text: Liver Microsome Stability Assay (rat)
- Study conditions: rat liver microsomes, with NADPH, 1.0 uM compound
Measured quantity: Liver Microsome Stability (Multiple Species): Rat - % Remaining after 30 min w/NADPH (%)

Examples from the recorded data:
Molecule | Unit annotation | Endpoint result
COc1ccc(O[C@H]2CC[C@H](c3csc(NC(=O)c4cccn4Cc4ccncc4)n3)CC2)nc1 | % | 0.26
O=C(Nc1nc([C@H]2CCCN2c2ccc(C(F)(F)F)cc2)cs1)c1cccn1Cc1ccncc1 | % | 51.5
CC(C)c1nc(/C=C/c2csc(NC(=O)c3cccn3Cc3ccncc3)n2)co1 | % | 1.03
O=C(Nc1nc([C@H]2C[C@@H](OCCO)CN2c2ccccc2)cs1)c1cccn1Cc1ccncc1 | % | 0.79
CC(C)c1nc(/C=C/c2csc(NC(=O)c3cccn3Cc3ccnc(F)c3)n2)cn1C | % | 1.32

[P] O=C(Nc1nc(/C=C/c2ncoc2C2CCCCC2)cs1)c1cccn1Cc1ccnc(F)c1
[Q] O=C(Nc1nc(CCC2CCCCO2)cs1)c1cccn1Cc1ccncc1 (stereo not shown)
[R] C/C(=C\c1csc(NC(=O)c2cccn2Cc2ccncc2)n1)c1ccc(OC(F)(F)F)cn1
Ask: Please list these molecules in decreasing order of Liver Microsome Stability (Multiple Species): Rat - % Remaining after 30 min w/NADPH. List labels; respect the requested ordering.
Reply: R, P, Q
(R: 46.1%, P: 2.11%, Q: 0.75%)

[P] O=C(Nc1nc([C@H]2CCCN2c2cccnc2)cs1)c1cccn1Cc1ccncc1
[Q] O=C(Nc1nc([C@H]2CCCN2c2ccccc2)cs1)c1cccn1CC1CCCCC1
[R] CNC(=O)c1ccc(N2CCC[C@@H]2c2csc(NC(=O)c3cccn3Cc3ccncc3)n2)cc1
Ask: Arrange the 3 molecules from largest to smallest Liver Microsome Stability (Multiple Species): Rat - % Remaining after 30 min w/NADPH. Reply with the item labels sorted in the order that was asked for.
Reply: Q, P, R
(Q: 56.6%, P: 1.85%, R: 0.38%)

[I] O=C(Nc1nc(-c2cccc(-c3ccccn3)c2)cs1)c1cccn1Cc1ccnc(F)c1
[II] Cc1ccc(N2CCC[C@@H]2c2csc(NC(=O)c3cccn3CC3CCOCC3)n2)cc1
Ask: Which value of Liver Microsome Stability (Multiple Species): Rat - % Remaining after 30 min w/NADPH is numerically greater: that of I or that of II ? # answer = label of selected item
Reply: II
(II: 60.2%, I: 8.48%)

[P] O=C(Nc1nc([C@H]2CCCN2c2ccc(O[C@H]3CCCNC3)cc2)cs1)c1cccn1Cc1ccnc(F)c1
[Q] CC(=O)N1CCC(C(C)c2ccc(N3CCC[C@@H]3c3csc(NC(=O)c4cccn4Cc4ccnc(F)c4)n3)cc2)CC1 (stereo partly shown)
[R] Cc1cnc(/C=C/c2csc(NC(=O)c3cccn3Cc3ccncc3)n2)o1
Ask: Sort these molecules on Liver Microsome Stability (Multiple Species): Rat - % Remaining after 30 min w/NADPH so the largest reading comes first. # list labels per requested ordering
Reply: P, Q, R
